Experiment: Intrinsic clearance in CD1 mouse liver microsomes at 10 uM after 5 to 240 mins by RP-UPLC-UV method
Assay type: ADME, microsome
Conditions: read-out: CLH
Measured microsomal CLint at 10 µM, listed per entry.
reported_metric: microsomal CLint at 10 µM (µL/min/mg)

INSERT INTO assay_data (smiles_repr, result_unit, recorded_measurement) VALUES
  ('Nc1nc(N)c2nc(CN(Cc3ccc(B(O)O)cc3)c3ccc(C(=O)N[C@@H](CCC(=O)O)C(=O)O)cc3)cnc2n1', 'µL/min/mg', 2.6),
  ('CN(Cc1cnc2nc(N)nc(NC(=O)OCc3ccc(B(O)O)cc3)c2n1)c1ccc(C(=O)N[C@@H](CCC(=O)O)C(=O)O)cc1', 'µL/min/mg', 6.4);

* * *

Assay: Half life in human plasma at 20 uM by RP-UPLC-UV method
Type: ADME, cell-free
reported_metric: half-life at 20 µM (h)

INSERT INTO measurements (smiles_repr, reported_metric, recorded_measurement) VALUES
  ('CN(Cc1cnc2nc(N)nc(NC(=O)OCc3ccc(B(O)O)cc3)c2n1)c1ccc(C(=O)N[C@@H](CCC(=O)O)C(=O)O)cc1', 'half-life at 20 µM', 70),
  ('Nc1nc(N)c2nc(CN(Cc3ccc(B(O)O)cc3)c3ccc(C(=O)N[C@@H](CCC(=O)O)C(=O)O)cc3)cnc2n1', 'half-life at 20 µM', 56);

* * *

Assay: Half life in SGF by RP-UPLC-UV method
Type: physicochemical
half-life: recorded values
reported_metric: half-life (days)

INSERT INTO assay_data (smiles_repr, recorded_measurement) VALUES
  ('Nc1nc(N)c2nc(CN(Cc3ccc(B(O)O)cc3)c3ccc(C(=O)N[C@@H](CCC(=O)O)C(=O)O)cc3)cnc2n1', 32.1),
  ('CN(Cc1cnc2nc(N)nc(NC(=O)OCc3ccc(B(O)O)cc3)c2n1)c1ccc(C(=O)N[C@@H](CCC(=O)O)C(=O)O)cc1', 0.333);

* * *

Quick reference: remaining at 24 h, 20 µM of the listed items.
Test: Metabolic stability in human plasma at 20 uM after 24 hrs by RP-UPLC-UV method
Format: ADME, cell-free
Details: read-out: Stability
reported_metric: remaining at 24 h, 20 µM (%)

INSERT INTO assay_data (smiles_repr, reported_metric, result_unit, recorded_measurement) VALUES
  ('Nc1nc(N)c2nc(CN(Cc3ccc(B(O)O)cc3)c3ccc(C(=O)N[C@@H](CCC(=O)O)C(=O)O)cc3)cnc2n1', 'remaining at 24 h, 20 µM', '%', 82),
  ('CN(Cc1cnc2nc(N)nc(NC(=O)OCc3ccc(B(O)O)cc3)c2n1)c1ccc(C(=O)N[C@@H](CCC(=O)O)C(=O)O)cc1', 'remaining at 24 h, 20 µM', '%', 70);

* * *

Tested on: NCI-H460
Test: Cytotoxicity against human NCI-H460 cells assessed as decrease in cell viability after 48 hrs by MTS assay
Format: functional, cell-based
The source made the active and inactive calls. The rule behind the calls is not given here.
Outcome codes: active, inactive

INSERT INTO assay_data (compound, label_value) VALUES
  ('Nc1nc(N)c2nc(CN(Cc3ccc(B(O)O)cc3)c3ccc(C(=O)N[C@@H](CCC(=O)O)C(=O)O)cc3)cnc2n1', 'inactive'),
  ('CN(Cc1cnc2nc(N)nc(N)c2n1)c1ccc(C(=O)N[C@@H](CCC(=O)O)C(=O)O)cc1 [METHOTREXATE]', 'active'),
  ('Nc1nc(N)c2nc(CNc3ccc(C(=O)N[C@@H](CCC(=O)O)C(=O)O)cc3)cnc2n1', 'active'),
  ('CN(Cc1cnc2nc(N)nc(NC(=O)OCc3ccc(B(O)O)cc3)c2n1)c1ccc(C(=O)N[C@@H](CCC(=O)O)C(=O)O)cc1', 'inactive');
